Assay Explanation: chemical genetic growth profiling, strain panel (AID 1159580);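 note: tested at 20 µM; growth read once vehicle control cultures reached saturation at 30 °C; 1 = growth at the plate median or of vehicle wells; lower values mean less growth of the strain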
Condition Description: S. cerevisiae deletion strains, growth OD, locus YEL003W, strain gim4, hits give low values
Screen size: about 5,500 compounds; about 2,000 (36%) were called active. Another 18% or so got no clear call; they are omitted. Some of the results follow.
Observed Property: normalized growth
Simply state the number, no unit and no words.

* O=c1n(CCCN2CCN(c3cccc(Cl)c3)CC2)nc2ccccn12 | 0.986
* Nc1ncnc2nc[nH]c12 | 1.01
* CC(=O)c1ccc2c(c1)N(CCCN(C)C)c1ccccc1S2 | 0.986
* Cc1nccc2c1[nH]c1ccccc12 | 0.983
* COc1ccc2c(c1)[nH]c1c(C)nccc12 | 0.988
* O=c1[nH]cnc2nc[nH]c12 | 1.01

Consider now this further molecule.
Query: normalized growth; subject: "Cn1c(=O)[nH]c(=O)c2[nH]cnc21"
1

====

Assay Explanation: chemical genetic growth profiling, strain panel (AID 1159580);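 note: tested at 20 µM; growth read once vehicle control cultures reached saturation at 30 °C; 1 = growth at the plate median or of vehicle wells; lower values mean less growth of the strain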
Condition Description: S. cerevisiae deletion strains, growth OD, locus YLL041C, strain sdh2
Hit rate of the full screen: of about 5,500 compounds, about 2,000 (36%) were called active. Inconclusive results (about 18%) are left out. No stated cut-off is given here; in the data, active means normalized growth mostly below about 0.91 (no sharp cut-off); inconclusive means no clear call, values can overlap the other calls; inactive means mostly above about 0.92. This is one part of the list.
// allowed return values: active, inactive

- C[N+]1(C)CCc2cc3c(cc2[C@H]1C1OC(=O)c2c1ccc1c2OCO1)OCO3 (stereo partly specified): inactive
- CN1CCN(CCCN2c3ccccc3Sc3ccc(Cl)cc32)CC1: inactive
- Cc1c(N(C)CS(=O)(=O)O)c(=O)n(-c2ccccc2)n1C: inactive

Please indicate how the test categorized C[C@]12CCC3C(CC[C@H]4CC(=O)CC[C@]34C)C1CCC2=O (stereo partly specified) .
inactive

Please indicate how the test categorized "CCCc1nc(C(C)(C)O)c(C(=O)OCc2oc(=O)oc2C)n1Cc1ccc(-c2ccccc2-c2nn[nH]n2)cc1" .
inactive

Please indicate how the test categorized "CCS(=O)(=O)CCn1c([N+](=O)[O-])cnc1C" .
inactive

====

Assay Explanation: chemical genetic growth profiling, strain panel (AID 1159580);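 note: tested at 20 µM; growth read once vehicle control cultures reached saturation at 30 °C; 1 = growth at the plate median or of vehicle wells; lower values mean less growth of the strain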
Condition Description: S. cerevisiae deletion strains, growth OD, locus YLR371W, strain rom2
In all, about 5,500 compounds went through this assay and about 2,000 (36%) were called active. Roughly 18% stayed inconclusive and do not appear here. No stated cut-off is given here; in the data, active means normalized growth mostly below about 0.91 (no sharp cut-off); inconclusive means no clear call, values can overlap the other calls; inactive means mostly above about 0.92. Some of the results follow.
// allowed return values: Yes = active, No = inactive

Would you please look over these solved cases?
• C[C@]12CCC3C(CC[C@H]4CC(=O)CC[C@]34C)C1CCC2=O (stereo partly specified) = No
• OCCN1CCN(CCCN2c3ccccc3Sc3ccc(Cl)cc32)CC1 = No
• CCCCC(=O)O[C@H]1CCC2C3CCc4cc(O)ccc4C3CC[C@@]21C (stereo partly specified) = No
• COc1cc(O)c(C(=O)O)c(O)c1 = No
• COc1ccc2ccc(=O)oc2c1CC=C(C)C = Yes

Please indicate how the test categorized COC(=O)C[C@H]1C(C)(C)C(OC(C)=O)[C@]2(O)C=C3C4CC(=O)O[C@@H](c5ccoc5)[C@]4(C)CCC3[C@@]1(C)C2=O (stereo partly specified) .
No

Please indicate how the test categorized CC(=O)OC1CCC2C3CCc4cc(O)ccc4C3CCC12C (stereo unspecified) .
No

Please indicate how the test categorized "N#Cc1ccc2c(c1)N(CCCN1CCC(O)CC1)c1ccccc1S2" .
No

Please indicate how the test categorized "Cn1c([N+](=O)[O-])cnc1COC(N)=O" .
No

Please indicate how the test categorized "CC(C)=CCOc1c2occc2cc2ccc(=O)oc12" .
Yes

Please indicate how the test categorized "COC(=O)C1=CO[C@@H](O[C@@H]2O[C@H](CO)[C@@H](O)[C@H](O)[C@H]2O)[C@@H]2[C@@H](C)[C@@H](O)C[C@H]12" .
No
